# system.under.test: T1, murine IL-11 (mouse, UniProt P47873 22-199)
# T1 construct: bought from Invigate; also called mIL-11; mIL11
# T1 sequence: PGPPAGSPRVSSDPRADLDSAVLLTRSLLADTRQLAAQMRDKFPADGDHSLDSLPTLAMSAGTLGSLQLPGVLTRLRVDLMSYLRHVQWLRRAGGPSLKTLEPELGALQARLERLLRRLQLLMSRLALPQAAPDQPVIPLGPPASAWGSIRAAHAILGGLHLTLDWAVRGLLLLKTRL
# assay.details: SPR, antibody captured, IL-11 as analyte
readout.name: Kd (nM)

| binder | readout.name | reported.result |
| --- | --- | --- |
| TPP-26292 (antibody, V domains shown, constant regions not restated) VH: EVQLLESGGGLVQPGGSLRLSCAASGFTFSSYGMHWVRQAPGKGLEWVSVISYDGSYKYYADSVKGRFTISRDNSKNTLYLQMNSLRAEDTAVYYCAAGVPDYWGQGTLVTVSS VL: QSVLTQPPSASGTPGQRVTISCTGSSSNIGAGYDVHWYQQLPGTAPKLLIYSNNERPSGVPDRFSGSKSGTSASLAISGLRSEDEADYYCAAWDESLNGPVFGGGTKLTVL | Kd | 0.48 |
| TPP-26321 (antibody, V domains shown, constant regions not restated) VH: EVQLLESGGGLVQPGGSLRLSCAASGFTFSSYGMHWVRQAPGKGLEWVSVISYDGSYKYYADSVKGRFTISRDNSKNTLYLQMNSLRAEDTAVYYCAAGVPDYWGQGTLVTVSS VL: QSVLTQPPSASGTPGQRVTISCTGSSSNIGAGYDVHWYQQLPGTAPKLLIYSNNERPSGVPDRFSGSKSGTSASLAISGLRSEDEADYYCAAWDLSLNGPVFGGGTKLTVL | Kd | 0.94 |
| TPP-26312 (antibody, V domains shown, constant regions not restated) VH: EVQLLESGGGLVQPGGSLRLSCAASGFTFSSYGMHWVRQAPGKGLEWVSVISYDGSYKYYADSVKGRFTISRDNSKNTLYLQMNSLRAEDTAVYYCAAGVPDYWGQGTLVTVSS VL: QSVLTQPPSASGTPGQRVTISCTGSSSNIGAGLDVHWYQQLPGTAPKLLIYSNNERPSGVPDRFSGSKSGTSASLAISGLRSEDEADYYCAAWDDSLNGPVFGGGTKLTVL | Kd | 0.8 |
| TPP-26331 (antibody, V domains shown, constant regions not restated) VH: EVQLLESGGGLVQPGGSLRLSCAASGFTFSSYGGHWVRQAPGKGLEWVSVISYDGSYKYYADSVKGRFTISRDNSKNTLYLQMNSLRAEDTAVYYCAAGVPDYWGQGTLVTVSS VL: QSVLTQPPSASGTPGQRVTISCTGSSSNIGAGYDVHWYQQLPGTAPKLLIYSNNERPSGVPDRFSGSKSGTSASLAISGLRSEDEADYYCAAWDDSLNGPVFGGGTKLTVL | Kd | 0.95 |
| TPP-26293 (antibody, V domains shown, constant regions not restated) VH: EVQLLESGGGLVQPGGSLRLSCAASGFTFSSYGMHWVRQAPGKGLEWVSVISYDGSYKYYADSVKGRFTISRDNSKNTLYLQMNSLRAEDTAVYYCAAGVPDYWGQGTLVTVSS VL: QSVLTQPPSASGTPGQRVTISCTGSSSNIGAWYDVHWYQQLPGTAPKLLIYSNNERPSGVPDRFSGSKSGTSASLAISGLRSEDEADYYCAAWDDSLNGPVFGGGTKLTVL | Kd | 0.26 |
